Target: human CYP11B2 (Homo sapiens, UniProt P19099)
Construct: mitochondrial fraction
Sequence (P19099 25-503): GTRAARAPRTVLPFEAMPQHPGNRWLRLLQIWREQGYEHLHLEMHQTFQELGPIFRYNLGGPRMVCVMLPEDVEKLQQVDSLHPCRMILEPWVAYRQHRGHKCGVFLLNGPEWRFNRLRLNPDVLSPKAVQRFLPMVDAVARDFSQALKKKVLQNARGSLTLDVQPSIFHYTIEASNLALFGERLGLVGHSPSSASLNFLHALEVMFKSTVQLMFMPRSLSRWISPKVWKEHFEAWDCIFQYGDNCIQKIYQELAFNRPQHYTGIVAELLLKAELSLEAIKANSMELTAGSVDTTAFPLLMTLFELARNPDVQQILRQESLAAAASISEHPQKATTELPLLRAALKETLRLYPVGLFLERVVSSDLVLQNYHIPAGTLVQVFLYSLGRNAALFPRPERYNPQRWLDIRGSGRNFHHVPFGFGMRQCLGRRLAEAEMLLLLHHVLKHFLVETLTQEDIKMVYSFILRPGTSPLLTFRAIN
Test: Inhibitory effect on hCYP11B2: aldosterone production in mitochondrial fraction of V79 cells stably expressing human CYP11B2, HTRF
Details: 0.5 μmol/L deoxycorticosterone, 150 μmol/L NADPH, 1.5-2 hours at room temperature
pIC50: −log10 of the molar value.
OBSERVATION TYPE: pIC50

I: CC(C)NC(=O)CN1CCN(c2cncc(-c3ccc(C#N)nc3)c2)CC1
II: Cn1ncc2cc(-c3cncc(N4CCN(CC(=O)N[C@H]5CC[C@@H](N(C)C)CC5)CC4)n3)ccc21
[in] Between I and II , which one has the lower reported pIC50 value? Your answer should be the label attached to the chosen record.
[out] II

A: Cc1ccccc1-c1cnnc(N2CCN(CC(=O)N[C@H]3CC[C@@H](N(C)C)CC3)CC2)c1
B: O=C(CN1CCN(c2cncc(-c3ccc(F)cc3)c2)CC1)NC1CCn2ccnc2C1 (centres unmarked)
C: O=C(CN1CCN(c2cncc(-c3ccc(Cl)cc3)n2)CC1)NN1CCCC1
D: C[C@@H]1CN(c2cncc(-c3ccc(C(F)(F)F)cc3)n2)CCN1CC(=O)N[C@H]1CC[C@](C)(O)CC1
[in] Please produce an ascending ranking of these molecules based on pIC50. Rank them, then answer with their labels in that order.
[out] D, A, B, C
(D: 7.39, A: 7.66, B: 8.18, C: 8.40)

P: CO[C@H]1CC[C@@H](NC(=O)CN2CCN(c3cncc(-c4ccc5cnn(C)c5c4)n3)CC2)CC1
Q: CN(C)[C@H]1CC[C@@H](NC(=O)CN2CCN(c3cncc(-c4ccc(Cl)cc4)n3)CC2)CC1
R: Cc1ccccc1-c1cncc(N2CCN(CC(=O)N[C@H](CO)C(C)C)CC2)c1
S: CC(C)NC(=O)CN1CCN(c2cncc(-c3ccc4cn[nH]c4c3)c2)CC1
[in] Descending sort on pIC50 required. Record the ranking as a list of labels in the requested order.
[out] R, Q, P, S
(R: 8.31, Q: 8.06, P: 7.85, S: 7.52)

---

Molecular target: human CYP11B2 (Homo sapiens)
Construct: mitochondrial fraction
Assay: Inhibitory effect on hCYP11B2: aldosterone production in mitochondrial fraction of V79 cells stably expressing human CYP11B2, HTRF
Conditions: 0.5 μmol/L deoxycorticosterone, 150 μmol/L NADPH, 1.5-2 hours at room temperature
pIC50: −log10 of the molar value.
OBSERVATION TYPE: pIC50

These recorded examples may help you get a feel for the data.
MOLECULE: CC(C)NC(=O)CN1CCN(c2cncc(-c3ccc4c(c3)CCO4)c2)CC1
pIC50: 7.96
//
MOLECULE: O=C1CN([C@H]2CC[C@@H](NC(=O)CN3CCN(c4cncc(-c5ccc(F)cc5)n4)CC3)CC2)CCN1
pIC50: 8.41
//
MOLECULE: Cc1ccccc1-c1cncc(N2CCN(CC(=O)Nc3cnn(C)c3)CC2)c1
pIC50: 8.32
//
MOLECULE: Cn1ncc2ccc(-c3cncc(N4CCN(CC(=O)N[C@H]5CC[C@@H](CO)CC5)CC4)n3)cc21
pIC50: 7.72
//
MOLECULE: CNC(=O)COC1CCC(NC(=O)CN2CCN(c3cc(-c4ccc(Cl)cc4)cnn3)CC2)CC1 (stereo not shown)
pIC50: 8.08

a: CN1CCC(NC(=O)CN2CCN(c3cncc(-c4ccc5cnn(C)c5c4)n3)CC2)CC1
b: CN(C)[C@H]1CC[C@@H](NC(=O)CN2CCN(c3cncc(-c4ccc(F)cc4)c3)CC2)CC1
[in] Kindly identify the item with the lower pIC50 figure among these two: a and b // output: label of the selected item
[out] a
